The measured values listed here are drawn from patent US12310975B2.

compounds and their reported DC50
TARGET_OF_ASSAY: BCL6 (Homo sapiens (Human), UniProt P41182)
ASSAY_EXPLANATION: Immunofluorescence high content imaging of BCL6 degradation in T47D cells
Assay type: cell-based
ASSAY_CONDITIONS: class symbols A-D, read-out: EC50 (nM)*

- COMPOUND: "CC(=O)COc1cc2cc(Nc3nc(N4CCN(C(=O)C5CCN(c6ccc7c(c6)C(=O)N(C6CCC(=O)NC6=O)C7=O)CC5)CC4)ncc3Cl)ccc2n(C)c1=O (centres unmarked) [compound 163]"
  DC50: "10 to 50 nM"
- COMPOUND: "CC(=O)COc1cc2cc(Nc3nc(N4CCC(CCOC5CN(c6ccc7c(c6)C(=O)N(C6CCC(=O)NC6=O)C7=O)C5)CC4)ncc3Cl)ccc2n(C)c1=O (centres unmarked) [compound 164]"
  DC50: "> 100 nM"
- COMPOUND: "CNC(=O)COc1cc2cc(Nc3nc(N4CCC(Oc5ccc(OCCCOCCOCCOc6ccc7c(c6)CN(C6CCC(=O)NC6=O)C7=O)cc5)CC4)ncc3Cl)ccc2n(C)c1=O (centres unmarked) [compound 96]"
  DC50: "> 100 nM"
- COMPOUND: "CN1C(=O)CCc2cc(Nc3cc(OC4CCN(C5CCN(c6ccc7c(c6)C(=O)N(C6CCC(=O)NC6=O)C7=O)CC5)CC4)c([N+](=O)[O-])cc3Cl)ccc21 (centres unmarked) [compound 79]"
  DC50: "> 100 nM"
- COMPOUND: "CNC(=O)COc1cc2cc(Nc3nc(N4CCC(OCCOCCOCCOc5ccccc5OCCOc5ccc6c(c5)CN(C5CCC(=O)NC5=O)C6=O)CC4)ncc3Cl)ccc2n(C)c1=O (centres unmarked) [compound 110]"
  DC50: "> 100 nM"
- COMPOUND: "CNC(=O)COc1cc2cc(Nc3nc(N4CCC(OCCOCCOCCOc5ccc6c(c5)C(=O)N(C5CCC(=O)NC5=O)C6=O)CC4)ncc3Cl)ccc2n(C)c1=O (centres unmarked) [compound 52]"
  DC50: "50 to 100 nM"
- COMPOUND: "CNC(=O)COc1cc2cc(Nc3nc(N4CCC(OCCOCCOCCOCCOc5ccc6c(c5)C(=O)N(C5CCC(=O)NC5=O)C6=O)CC4)ncc3Cl)ccc2n(C)c1=O (centres unmarked) [compound 60]"
  DC50: "> 100 nM"
- COMPOUND: "CNC(=O)COc1cc2cc(Nc3nc(N4CCC(Cc5cn(CCOCCOCCOc6ccc7c(c6)C(=O)N(C6CCC(=O)NC6=O)C7=O)nn5)CC4)ncc3Cl)ccc2n(C)c1=O (centres unmarked) [compound 130]"
  DC50: "> 100 nM"

---

TARGET_OF_ASSAY: BCL6 (Homo sapiens (Human))
ASSAY_EXPLANATION: Immunofluorescence high content imaging of BCL6 degradation in T47D cells
Format: cell-based
ASSAY_CONDITIONS: T47D cells
Attribute: IC50

- COMPOUND: "CNC(=O)COc1cc2cc(Nc3nc(N4CCN(CC5CCN(c6ccc7c(c6)C(=O)N(C6CCC(=O)NC6=O)C7=O)CC5)CC4)ncc3Cl)ccc2n(C2CC2)c1=O (stereo not shown)"
  IC50: "< 10 nM"
- COMPOUND: "CNC(=O)COc1cc2cc(Nc3nc(N4CCC(CN5CCC(c6cc(C(=O)N7CCC7)cc(N7CCC(=O)NC7=O)c6)CC5)CC4)ncc3Cl)ccc2n(C(C)C)c1=O"
  IC50: "≥ 100 nM"
- COMPOUND: "CNC(=O)COc1cc2cc(Nc3nc(N4CCN(CC5CCN(c6cccc(C(=O)NC7CCC(=O)NC7=O)c6)CC5)CC4)ncc3Cl)ccc2n(C)c1=O (stereo not shown)"
  IC50: "50 to 100 nM"
- COMPOUND: "CNC(=O)COc1cc2cc(Nc3nc(N4CCC(OC5CCC6(CC5)CN(c5ccc7c(c5)C(=O)N(C5CCC(=O)NC5=O)C7=O)C6)CC4)ncc3Cl)ccc2n(C(C)C)c1=O (stereo not shown)"
  IC50: "< 10 nM"
